# assay_system: Galectin 1 (Homo sapiens)
# Sequence (P09382 whole entry): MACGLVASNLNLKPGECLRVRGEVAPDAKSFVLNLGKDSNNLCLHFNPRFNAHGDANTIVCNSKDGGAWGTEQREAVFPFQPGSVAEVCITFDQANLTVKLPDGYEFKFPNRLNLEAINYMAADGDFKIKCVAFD
# assay_explanation: fluorescence anisotropy assay, inhibition of galectin / fluorescein tagged saccharide probe interaction
observed_property: Kd

Answered examples (5):
{"compound": "Cn1cncc1-c1cn(C2C(O)[C@H](SC3O[C@H](CO)C(O)C(n4cc(-c5cncn5C)nn4)[C@H]3O)OC(CO)[C@@H]2O)nn1 (stereo in doubt)", "test_result": "600 nM"}
{"compound": "Nc1ccc(-c2cn(C3C(O)[C@@H](CO)OC(S[C@@H]4OC(CO)[C@H](O)C(n5cc(-c6cc(F)c(F)c(F)c6)nn5)C4O)[C@@H]3O)nn2)cn1 (stereo in doubt)", "test_result": "34 nM"}
{"compound": "OCC1O[C@@H](SC2O[C@H](CO)C(O)C(n3cc(-c4ncc(C(F)(F)F)cc4Cl)nn3)[C@H]2O)C(O)C(n2cc(-c3ncc(C(F)(F)F)cc3Cl)nn2)[C@H]1O (stereo in doubt)", "test_result": "740 nM"}
{"compound": "OCC1O[C@@H](SC2O[C@H](CO)C(O)C(n3cc(-c4ncccn4)nn3)[C@H]2O)C(O)C(n2cc(-c3cc(F)c(F)c(F)c3)nn2)[C@H]1O (stereo in doubt)", "test_result": "70 nM"}
{"compound": "OCC1O[C@@H](S[C@@H]2O[C@H](CO)C(O)C(n3cc(-c4cncnc4)nn3)[C@H]2O)C(O)[C@@H](n2cc(-c3cncnc3)nn2)[C@H]1O (stereo partly shown)", "test_result": "390 nM"}

Let's switch to this compound now.
Send back Galectin 1 (Homo sapiens) Kd of OCC1O[C@@H](SC2O[C@H](CO)C(O)C(n3cc(-c4cccnc4)nn3)[C@H]2O)C(O)C(n2cc(-c3cc(F)c(F)c(F)c3)nn2)[C@H]1O (stereo in doubt) only.
38 nM

* * *

# assay_system: galectin-3 (Homo sapiens, UniProt P17931)
# Sequence (P17931 whole entry): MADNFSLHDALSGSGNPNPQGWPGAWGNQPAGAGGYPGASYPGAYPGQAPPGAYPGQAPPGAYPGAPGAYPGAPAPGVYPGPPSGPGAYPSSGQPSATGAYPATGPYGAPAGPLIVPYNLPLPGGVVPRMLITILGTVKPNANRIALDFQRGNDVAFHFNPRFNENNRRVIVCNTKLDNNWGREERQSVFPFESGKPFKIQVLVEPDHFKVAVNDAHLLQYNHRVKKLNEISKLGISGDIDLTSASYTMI
# assay_explanation: fluorescence anisotropy assay, inhibition of galectin / fluorescein tagged saccharide probe interaction
hey, just use True if measured Kd is less than 2 nM, otherwise False

{"compound": "OCC1O[C@@H](SC2O[C@H](CO)C(O)C(n3cc(-c4ncc(C(F)(F)F)cc4Cl)nn3)[C@H]2O)C(O)C(n2cc(-c3ncc(C(F)(F)F)cc3Cl)nn2)[C@H]1O (stereo in doubt)", "group_label": "False"}
{"compound": "OCC1O[C@@H](SC2O[C@H](CO)C(O)C(n3cc(-c4cncnc4)nn3)[C@H]2O)C(O)C(n2cc(-c3cc(F)c(F)c(F)c3)nn2)[C@H]1O (stereo in doubt)", "group_label": "True"}
{"compound": "OCC1O[C@@H](SC2O[C@H](CO)C(O)C(n3cc(-c4ccc(F)cn4)nn3)[C@H]2O)C(O)C(n2cc(-c3ccc(F)cn3)nn2)[C@H]1O (stereo in doubt)", "group_label": "False"}

Is it true that Kd reported for OCC1O[C@@H](SC2O[C@H](CO)C(O)C(n3cc(-c4ncc(F)cn4)nn3)[C@H]2O)C(O)C(n2cc(-c3cc(F)c(F)c(F)c3)nn2)[C@H]1O (stereo in doubt) is less than 2 nM?
True

Hi there! Is Kd for OCC1O[C@@H](SC2O[C@H](CO)C(O)C(n3cc(-c4ccccn4)nn3)[C@H]2O)C(O)C(n2cc(-c3cc(F)c(F)c(F)c3)nn2)[C@H]1O (stereo in doubt) below 2 nM, do you know?
True
